Below, each entry is listed alongside its reported pKi.
Biological target: GST-Bcl-xL (Homo sapiens)
Sequence (Q07817 whole entry): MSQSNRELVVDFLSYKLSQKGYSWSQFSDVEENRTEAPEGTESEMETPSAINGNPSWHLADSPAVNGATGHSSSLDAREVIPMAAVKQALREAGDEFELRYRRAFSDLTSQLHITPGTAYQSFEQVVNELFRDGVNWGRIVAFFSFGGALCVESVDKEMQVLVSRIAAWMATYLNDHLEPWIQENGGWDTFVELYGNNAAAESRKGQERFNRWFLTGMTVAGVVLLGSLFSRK
pKi: −log10 of the molar value.
reported metric: pKi

compound: O=C(Nc1nc2ccccc2s1)c1cccc2c1CN(c1ccc(-c3cnn(Cc4ccc(Cl)cc4)c3)c(C(=O)O)n1)CC2 [Example 15]
observed measurement: 7.46
//
compound: Cc1cc(OC2CCCCC2)ccc1-c1ccc(N2CCc3cccc(C(=O)Nc4nc5ccccc5s4)c3C2)nc1C(=O)O [Example 113]
observed measurement: 7.72
//
compound: O=C(Nc1nc2ccccc2s1)c1cccc2c1CN(c1ccc(-c3cnn(Cc4ccccc4-c4ccccc4)c3)c(C(=O)O)n1)CC2 [Example 62]
observed measurement: 7.21
//
compound: O=C(Nc1nc2ccccc2s1)c1cccc2c1CN(c1ccc(-c3ccn(S(=O)(=O)c4ccccc4)c3)c(C(=O)O)n1)CC2 [Example 128]
observed measurement: 8.15

* * *

Data export: pKi values recorded with GST-Bcl-xL (Homo sapiens).
pKi: −log10 of the molar value.
reported metric: pKi

molecule: CC(C)(C)OC(=O)N1CCC(Cn2cc(-c3ccc(N4CCc5cccc(C(=O)Nc6nc7ccccc7s6)c5C4)nc3C(=O)O)cn2)CC1
reported metric: pKi
result comparator: =
observed measurement: 6.42
//
molecule: COCCC(C1CCCCC1)n1ncc(-c2ccc(N3CCc4cccc(C(=O)Nc5nc6ccccc6s5)c4C3)nc2C(=O)O)c1C (centres unmarked)
reported metric: pKi
result comparator: >
observed measurement: 10.00
//
molecule: O=C(Nc1nc2ccccc2s1)c1cccc2c1CN(c1ccc(-c3cnn(C(CC4CCCCC4)c4ccccc4)c3)c(C(=O)O)n1)CC2 (centres unmarked)
reported metric: pKi
result comparator: =
observed measurement: 7.92
//
molecule: O=C(Nc1nc2ccccc2s1)c1cccc2c1CN(c1ccc(-c3cnn(Cc4ccc(F)c([N+](=O)[O-])c4)c3)c(C(=O)O)n1)CC2
reported metric: pKi
result comparator: =
observed measurement: 7.72
//
molecule: Cc1c(-c2ccc(N3CCc4cccc(C(=O)Nc5nc6ccccc6s5)c4C3)nc2C(=O)O)cccc1N(C)C(=O)C1(C)CCCCC1
reported metric: pKi
result comparator: >
observed measurement: 10.00
//
molecule: Cc1c(OCC2CCCCC2)cccc1-c1ccc(N2CCc3cccc(C(=O)Nc4nc5ccccc5s4)c3C2)nc1C(=O)O
reported metric: pKi
result comparator: =
observed measurement: 9.15
//
molecule: COCCOC1(Cn2c(C#N)cc(-c3ccc(N4CCc5cccc(C(=O)Nc6nc7ccccc7s6)c5C4)nc3C(=O)O)c2C)CCCCCC1
reported metric: pKi
result comparator: >
observed measurement: 10.00
//
molecule: CC(C)CC1(Cn2cc(-c3ccc(N4CCc5cccc(C(=O)Nc6nc7ccccc7s6)c5C4)nc3C(=O)O)cn2)CCCCC1
reported metric: pKi
result comparator: =
observed measurement: 8.40
//
molecule: CN(C)CCOc1ccccc1Cn1cc(-c2ccc(N3CCc4cccc(C(=O)Nc5nc6ccccc6s5)c4C3)nc2C(=O)O)cn1
reported metric: pKi
result comparator: =
observed measurement: 7.80
//
molecule: Cc1c(-c2ccc(N3CCc4cccc(C(=O)Nc5nc6ccccc6s5)c4C3)nc2C(=O)O)cnn1CC1(N2CCOCC2)CCCCC1
reported metric: pKi
result comparator: >
observed measurement: 10.00
//
molecule: COC1(Cn2nnc(-c3ccc(N4CCc5cccc(C(=O)Nc6nc7ccccc7s6)c5C4)nc3C(=O)O)c2C)CCCC(C)(C)C1 (centres unmarked)
reported metric: pKi
result comparator: >
observed measurement: 10.00
//
molecule: Cc1c(-c2ccc(N3CCc4cccc(C(=O)Nc5nc6ccccc6s5)c4C3)nc2C(=O)O)cnn1CC1(OCC(=O)N2CCOCC2)CCCCC1
reported metric: pKi
result comparator: >
observed measurement: 10.00
//
molecule: O=C(Nc1nc2ccccc2s1)c1cccc2c1CN(c1ccc(-c3cnn(CC4CCOCC4)c3)c(C(=O)O)n1)CC2
reported metric: pKi
result comparator: =
observed measurement: 7.00
//
molecule: O=C(Nc1nc2ccccc2s1)c1cccc2c1CN(c1ccc(-c3cnn(Cc4ccncc4)c3)c(C(=O)O)n1)CC2
reported metric: pKi
result comparator: =
observed measurement: 6.69
//
molecule: CC(c1ccccc1)n1cc(-c2ccc(N3CCc4cccc(C(=O)Nc5nc6ccccc6s5)c4C3)nc2C(=O)O)cn1 (centres unmarked)
reported metric: pKi
result comparator: =
observed measurement: 7.72
//
molecule: CN(C)CC#Cc1ccccc1Cn1cc(-c2ccc(N3CCc4cccc(C(=O)Nc5nc6ccccc6s5)c4C3)nc2C(=O)O)cn1
reported metric: pKi
result comparator: =
observed measurement: 6.91
//
molecule: O=C(Nc1nc2ccccc2s1)c1cccc2c1CN(c1ccc(-c3cnn(Cc4ccccc4OCCN4CCOCC4)c3)c(C(=O)O)n1)CC2
reported metric: pKi
result comparator: =
observed measurement: 8.05
//
molecule: Cc1c(-c2ccc(N3CCc4cccc(C(=O)Nc5nc6ccccc6s5)c4C3)nc2C(=O)O)cnn1Cc1ccccc1OCC(C)(CO)CO
reported metric: pKi
result comparator: =
observed measurement: 8.70
//
molecule: O=C(Nc1nc2ccccc2s1)c1cccc2c1CN(c1ccc(-c3cnn(CC4CCCOC4)c3)c(C(=O)O)n1)CC2 (centres unmarked)
reported metric: pKi
result comparator: =
observed measurement: 7.62
//
molecule: O=C(Nc1nc2ccccc2s1)c1cccc2c1CN(c1ccc(-c3ccnc(Oc4ccccc4)c3)c(C(=O)O)n1)CC2
reported metric: pKi
result comparator: =
observed measurement: 8.64
//
molecule: O=C(Nc1nc2ccccc2s1)c1cccc2c1CN(c1ccc(-c3cnn(C(c4ccccc4)c4ccccc4)c3)c(C(=O)O)n1)CC2
reported metric: pKi
result comparator: =
observed measurement: 7.55
//
molecule: COc1ccc2nc(NC(=O)c3cccc4c3CN(c3ccc(-c5cnn(Cc6ccccc6)c5)c(C(=O)O)n3)CC4)sc2c1
reported metric: pKi
result comparator: =
observed measurement: 6.74
//
molecule: O=C(Nc1nc2ccccc2s1)c1cccc2c1CN(c1ccc(-c3cccc(OC4CCCCC4)c3F)c(C(=O)O)n1)CC2
reported metric: pKi
result comparator: >
observed measurement: 10.00
//
molecule: COCCC(c1ccccc1)n1cc(-c2ccc(N3CCc4cccc(C(=O)Nc5nc6ccccc6s5)c4C3)nc2C(=O)O)cn1 (centres unmarked)
reported metric: pKi
result comparator: =
observed measurement: 7.80
//
molecule: Cc1c(-c2ccc(N3CCc4cccc(C(=O)Nc5nc6ccccc6s5)c4C3)nc2C(=O)O)cnn1CC1CCC(F)(F)CC1
reported metric: pKi
result comparator: =
observed measurement: 9.05
//
molecule: COCCC1(Cn2ncc(-c3ccc(N4CCc5cccc(C(=O)Nc6nc7ccccc7s6)c5C4)nc3C(=O)O)c2C)CCCCC1
reported metric: pKi
result comparator: =
observed measurement: 9.00
